Test system: UO-31 renal
ASSAY REMARKS: NCI tumour cell line growth inhibition, 48 h
TGI values for the compounds below.

Known results for compounds:
| COMPOUND | TGI |
| --- | --- |
| Cc1cc(NS(=O)(=O)c2ccc(Nc3c4ccccc4nc4c(C(=O)N5CCN(CCOS(C)(=O)=O)CC5)cccc34)cc2)no1 | > 100 µM |
| COc1ccc2c(c1)sc1nc(-c3ccccc3)c(-c3cccc4ccccc34)n12 | > 100 µM |
| Clc1ccccc1C(SCc1ccccc1)SCc1ccccc1 | > 100 µM |

Returns the measured TGI for the input compound. Input: COC([CH2][Hg][n]1cnc2c1c(=O)n(C)c(=O)n2C)CN1C(=O)c2ccccc2S1(=O)=O (stereo unspecified)
> 100 µM

Record: "O=C1NC(=NCCc2cccc(F)c2)S/C1=C\c1ccc2ncccc2c1"
> 25 µM

// query: NC(=O)NCCCC(NC(=O)OCCCCn1ccc(=O)[nH]c1=O)C(=O)O (stereo unspecified)
> 100 µM
